- Test system: Digitaria sanguinalis (DIGSA)
- Run Description: Post-emergence efficacy, glasshouse spray test
- Type: in vivo
- Condition Notes: Digitaria sanguinalis, post-emergence, 312 h; Application Rate 500 g/Ha; evaluated after 13 days; read-out: Control of weed species after post-emergence application, DIGSA (100=total damage to plant; 0=no damage to plant)
Reported values of pest or weed control at 500 g/ha for individual entries
Property Measured: pest or weed control at 500 g/ha (%)

INSERT INTO assay_data (compound, tested_target, property_measured, recorded_measurement) VALUES
  ('O=C(O)CC[n+]1ccc(-c2csnn2)cn1 [Compound A139, 2,2,2-trifluoroacetate]', 'Digitaria sanguinalis (DIGSA)', 'pest or weed control at 500 g/ha', 70),
  ('Cc1coc(-c2cc[n+](CCCS(=O)(=O)[O-])nc2)n1 [Compound A136]', 'Digitaria sanguinalis (DIGSA)', 'pest or weed control at 500 g/ha', 70),
  ('O=C(O)CC[n+]1ccc(-c2cscn2)cn1 [Compound A100]', 'Digitaria sanguinalis (DIGSA)', 'pest or weed control at 500 g/ha', 40),
  ('O=S(=O)([O-])CC[n+]1ccc(-c2ncn[nH]2)cn1 [Compound A38]', 'Digitaria sanguinalis (DIGSA)', 'pest or weed control at 500 g/ha', 20),
  ('O=S(=O)([O-])CC[n+]1ccc(-c2ccco2)cn1 [Compound A53]', 'Digitaria sanguinalis (DIGSA)', 'pest or weed control at 500 g/ha', 90),
  ('Cn1cnc(-c2cc[n+](CCOS(=O)(=O)[O-])nc2)n1 [Compound A118]', 'Digitaria sanguinalis (DIGSA)', 'pest or weed control at 500 g/ha', 90),
  ('COC(=O)CCC[n+]1ccc(-c2ncco2)cn1 [Compound A69]', 'Digitaria sanguinalis (DIGSA)', 'pest or weed control at 500 g/ha', 90),
  ('Cc1coc(-c2cc[n+](CCC(=O)O)nc2)n1 [Compound A55]', 'Digitaria sanguinalis (DIGSA)', 'pest or weed control at 500 g/ha', 100),
  ('O=S(=O)([O-])CC[n+]1ccc(-c2ccsn2)cn1 [Compound A105]', 'Digitaria sanguinalis (DIGSA)', 'pest or weed control at 500 g/ha', 100);
